assayed-system: human ether-à-go-go-related gene (hERG) potassium channel (human);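 also: peak tail current of the secondary pulse compared with the same well before compound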
Sequence (Q12809 whole entry, looked up): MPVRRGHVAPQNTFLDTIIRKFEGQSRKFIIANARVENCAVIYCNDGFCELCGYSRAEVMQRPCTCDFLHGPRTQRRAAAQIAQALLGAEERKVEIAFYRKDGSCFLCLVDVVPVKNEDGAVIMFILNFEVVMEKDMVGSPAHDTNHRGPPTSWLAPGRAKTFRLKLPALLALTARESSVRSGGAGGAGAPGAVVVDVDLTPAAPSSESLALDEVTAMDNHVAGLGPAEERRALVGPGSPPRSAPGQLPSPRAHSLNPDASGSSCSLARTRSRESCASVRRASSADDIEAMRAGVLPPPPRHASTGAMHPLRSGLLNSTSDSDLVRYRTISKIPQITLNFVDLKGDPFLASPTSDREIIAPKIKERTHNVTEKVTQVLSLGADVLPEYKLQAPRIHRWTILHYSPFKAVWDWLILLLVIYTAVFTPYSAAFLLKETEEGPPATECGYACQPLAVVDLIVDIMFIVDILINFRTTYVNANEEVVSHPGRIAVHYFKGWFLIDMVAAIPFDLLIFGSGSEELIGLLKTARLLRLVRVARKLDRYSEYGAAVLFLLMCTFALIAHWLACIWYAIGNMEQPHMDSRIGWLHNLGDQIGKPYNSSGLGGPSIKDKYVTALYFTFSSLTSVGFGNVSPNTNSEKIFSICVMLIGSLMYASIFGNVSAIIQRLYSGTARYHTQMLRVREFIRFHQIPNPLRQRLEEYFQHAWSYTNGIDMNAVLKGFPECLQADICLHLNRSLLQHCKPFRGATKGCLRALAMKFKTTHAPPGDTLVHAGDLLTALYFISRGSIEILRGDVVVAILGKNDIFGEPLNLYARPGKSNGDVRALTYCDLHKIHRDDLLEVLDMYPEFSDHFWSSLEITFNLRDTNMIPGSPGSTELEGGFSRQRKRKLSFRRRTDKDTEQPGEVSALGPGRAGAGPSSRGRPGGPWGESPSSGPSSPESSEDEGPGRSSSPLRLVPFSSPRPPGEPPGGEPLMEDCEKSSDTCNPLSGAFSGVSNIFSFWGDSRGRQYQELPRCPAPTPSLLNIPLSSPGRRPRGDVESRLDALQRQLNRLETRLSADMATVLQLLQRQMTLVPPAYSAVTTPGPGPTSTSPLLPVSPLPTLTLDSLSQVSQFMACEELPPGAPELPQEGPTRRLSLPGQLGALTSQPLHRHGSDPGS
assay-text: primary screen, population patch clamp on CHO cells stably expressing hERG; higher = less effect of the substance
Out of some 310,000 compounds screened, about 14,000 (4.5%) showed an effect of 50% or more. Effects have a minus sign here. The full list was thinned out, with strong results kept by preference.
measured-metric: hERG current change (%, negative = inhibition) at 10uM (%)
State just the number; it will be interpreted in %.

Cc1cc(OCC(=O)N[C@H](C(=O)O)c2ccccc2)c2c3c(c(=O)oc2c1)CCC3    12.1

stdin: Could you share which hERG current change (%, negative = inhibition) at 10uM value was measured for CC(C)CNC(=O)COC(=O)CCC(=O)c1ccc(F)cc1 ?
stdout: 6.45

stdin: Request: CCCNC(=O)N1[C@H]2CC[C@@H]1C(C(=O)OC)=C(c1ccc(OC(F)(F)F)cc1)C2
stdout: -27.4

stdin: Request: Cc1ccccc1C(=O)N=c1c(C#N)cc2c(=O)n3cccc(C)c3nc2n1Cc1ccco1
stdout: -46.2

stdin: Request: COc1ccccc1-c1ccc(C(=O)O)o1
stdout: 7.06

stdin: Request: COc1ccc(NC(=S)NCCN2CCC(C)CC2)cc1Cl
stdout: -30.5

stdin: Request: CCCn1c(=N)c(C(=O)NC2CCCC2)cc2c(=O)n3cccc(C)c3nc21
stdout: -77.4

Cited source for all entries: paper PMC4336329
